Test: Bioavailability in rat
Type: ADME, organism-based
Conditions: in vivo
property: bioavailability (%)
One number for each entry, in %.

For `Cc1cc(F)ccc1[C@H]1CNCCN1C(=O)N(C)[C@H](C)c1cc(C(F)(F)F)cc(C(F)(F)F)c1` , write its bioavailability.
44

====

Assay: Ratio of drug level in brain to plasma in rat at 1 mg/kg, iv after 5 mins
property: Kp at 5 min
Numbers only.

# return recorded Kp at 5 min for input Cc1cc(F)ccc1[C@H]1CNCCN1C(=O)N(C)[C@H](C)c1cc(C(F)(F)F)cc(C(F)(F)F)c1 [VESTIPITANT]
1.3

====

Assay: Plasma clearance in dog
Assay type: ADME, organism-based, Canis lupus familiaris
property: clearance (L/h/kg)
Answers are plain numbers, in L/h/kg.

Check the records and state clearance for Cc1cc(F)ccc1[C@H]1CNCCN1C(=O)N(C)[C@H](C)c1cc(C(F)(F)F)cc(C(F)(F)F)c1 [VESTIPITANT]
0.9
